Target: rat TIMP-1 (rat, UniProt P30120 24-217)
Sequence (P30120 24-217 limits assumed): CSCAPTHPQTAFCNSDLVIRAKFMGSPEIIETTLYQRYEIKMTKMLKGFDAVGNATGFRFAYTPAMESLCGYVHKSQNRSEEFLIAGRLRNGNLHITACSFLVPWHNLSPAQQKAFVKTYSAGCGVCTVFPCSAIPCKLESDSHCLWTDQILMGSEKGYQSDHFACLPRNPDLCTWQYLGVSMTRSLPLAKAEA
Test: SPR (BIAcore), TIMP-1 coupled to chip, monovalent Fab
measured-quantity: pKd
Scale: pKd equals -log10([C]), with [C] in mol/L.

(Q) Would you kindly share the measured pKd for MS-BW-17-1 (Fab, V domains shown, Fab from LCDR3 optimization of MS-BW-17; also called MS-BW-17-1 Fab; BW-17-1 Fab) VH: QVQLVQSGAEVKKPGESLKISCKGSGYSFTSYWIGWVRQMPGKGLEWMGIIYPGDSDTRYSPSFQGQVTISADKSISTAYLQWSSLKASDTAMYYCARLTNYFDSIYYDHWGQGTLVTVSS VL: DIALTQPASVSGSPGQSITISCTGTSSDVGGYNYVSWYQQHPGKAPKLMIYDVSNRPSGVSNRFSGSKSGNTASLTISGLQAEDEADYYCQAFDVAPNGKVFGGGTKLTVLG ?
(A) 9.10
